log10 IC50 listing for selected molecules.
Tested on: HT-1197 cells
Assay explanation: Cell-based assay: anti-proliferative activity, Cell Counting Kit-8, 72 hours (HT-1197, negative control without MELK expression)
Assay context: Homo sapiens, HT1197, 72 h, HT1197 cells (negative control, no MELK expression), 72 hours
Structures can show the parent of a compound that is named as a salt.
The figures below represent log10 of IC50, where IC50 is stated in µM.

>  <Molecule>
COc1cc(-c2ccc3ncc(C(C)=O)c(Nc4ccc(N5CCNCC5)nc4)c3c2)cc(Cl)c1O [Example 704, hydrochloride]

>  <Assay target>
HT-1197 cells

>  <Endpoint result>
0.32

$$$$
>  <Molecule>
CCC(=O)c1cnc2ccc(-c3cc(Cl)c(O)c(OC)c3)cc2c1N[C@H]1CC[C@H](CN(C)C)CC1

>  <Assay target>
HT-1197 cells

>  <Endpoint result>
0.69

$$$$

Query: I have this molecule here, CN(C)C[C@H]1CC[C@H](Nc2c(S(C)(=O)=O)cnc3ccc(-c4ccc(O)c(Cl)c4)cc23)CC1 , and I need its recorded log10 IC50.
Reply: 0.04

Query: I have this molecule here, CC(=O)c1cnc2ccc(-c3cc(Cl)c(O)c(Cl)c3)cc2c1NC1CCN(CCN(C)C)CC1 , and I need its recorded log10 IC50.
Reply: 0.41

Query: I have this molecule here, COc1cc(-c2ccc3ncc(C(=O)C4CC4)c(Nc4ccc(CN5CCOCC5)cc4)c3c2)cc(Cl)c1O , and I need its recorded log10 IC50.
Reply: 0.78

Query: I have this molecule here, O=C(c1cnc2ccc(-c3cc(F)c(O)c(Cl)c3)cc2c1NC1CCNCC1)C1CC1 , and I need its recorded log10 IC50.
Reply: 1.00

Query: I have this molecule here, CN1CCN(C[C@H]2CC[C@H](Nc3c(C(=O)C4CC4)cnc4ccc(-c5cc(F)c(O)c(Cl)c5)cc34)CC2)CC1 , and I need its recorded log10 IC50.
Reply: -0.03
